B1: KLHL12 (parent)
chain: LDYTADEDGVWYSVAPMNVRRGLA

Variants of: B1
Assay: protein stability index of a GFP-peptide fusion (GPS, HEK-293T) (PSI 1-6); higher = more stable;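 note: lentivirally expressed fusions sorted by FACS into six bins by GFP to DsRed ratio, PSI derived from sequencing read proportions per bin multiplied by bin number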
Settings: c terminus: a fixed tail appended
Decide by protein stability index: equal to or exceeding 2 means Criterion met, less means Criterion not met.

D8W Criterion met
M17Q Criterion met
L1C Criterion met
V19Y Criterion not met
V19Q Criterion met
V14C Criterion met
D6A Criterion not met
E7R Criterion met

Quick check: does G9L have protein stability index greater than or equal to 2?
Criterion not met

Quick check: does Y12H have protein stability index greater than or equal to 2?
Criterion met

Quick check: does Y12E have protein stability index greater than or equal to 2?
Criterion met

Quick check: does R21D have protein stability index greater than or equal to 2?
Criterion not met

Quick check: does L23C have protein stability index greater than or equal to 2?
Criterion not met

Quick check: does T4P have protein stability index greater than or equal to 2?
Criterion met

Quick check: does A15R have protein stability index greater than or equal to 2?
Criterion met

Quick check: does R21E have protein stability index greater than or equal to 2?
Criterion met

Quick check: does R20D have protein stability index greater than or equal to 2?
Criterion met

Quick check: does P16N have protein stability index greater than or equal to 2?
Criterion met

Quick check: does D2C have protein stability index greater than or equal to 2?
Criterion met

Quick check: does N18A have protein stability index greater than or equal to 2?
Criterion not met

Quick check: does V10W have protein stability index greater than or equal to 2?
Criterion not met

Quick check: does G22T have protein stability index greater than or equal to 2?
Criterion met

Quick check: does T4R have protein stability index greater than or equal to 2?
Criterion not met

Quick check: does P16C have protein stability index greater than or equal to 2?
Criterion not met

Quick check: does G9N have protein stability index greater than or equal to 2?
Criterion met

Quick check: does Y3C have protein stability index greater than or equal to 2?
Criterion met

Quick check: does W11V have protein stability index greater than or equal to 2?
Criterion met

Quick check: does G9T have protein stability index greater than or equal to 2?
Criterion met

Quick check: does D2T have protein stability index greater than or equal to 2?
Criterion not met

Quick check: does A5G have protein stability index greater than or equal to 2?
Criterion met

Quick check: does Y12I have protein stability index greater than or equal to 2?
Criterion not met

Quick check: does S13K have protein stability index greater than or equal to 2?
Criterion met
